target desc: T1, human IL-23R endogenously expressed on DB cells (human, UniProt Q5VWK5 24-629)
T1 sequence (looked up): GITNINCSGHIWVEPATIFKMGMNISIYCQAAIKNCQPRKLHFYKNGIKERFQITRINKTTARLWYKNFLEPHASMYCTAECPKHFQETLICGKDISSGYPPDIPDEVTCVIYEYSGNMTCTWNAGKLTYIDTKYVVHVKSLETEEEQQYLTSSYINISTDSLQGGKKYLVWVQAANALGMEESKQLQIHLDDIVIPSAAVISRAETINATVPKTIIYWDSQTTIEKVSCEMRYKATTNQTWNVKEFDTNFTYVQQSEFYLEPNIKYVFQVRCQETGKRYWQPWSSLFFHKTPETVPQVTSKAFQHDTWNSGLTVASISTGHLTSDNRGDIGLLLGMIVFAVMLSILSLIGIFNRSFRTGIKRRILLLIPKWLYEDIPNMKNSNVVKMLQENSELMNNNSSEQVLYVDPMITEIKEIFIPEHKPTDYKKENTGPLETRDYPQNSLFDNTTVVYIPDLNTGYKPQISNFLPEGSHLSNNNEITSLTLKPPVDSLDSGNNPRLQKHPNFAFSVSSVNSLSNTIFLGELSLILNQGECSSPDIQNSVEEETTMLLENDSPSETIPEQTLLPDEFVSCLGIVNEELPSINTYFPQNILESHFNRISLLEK
procedure text: cell-based or functional assay
*1 amine or outer side, *2 acyl side, *3 side chain or, on linkers, in order; H or OH if unused. Bridges are numbered along the chain shown (N, C = ends). Where no end group is shown, it is not given here. [ ]: non-standard residue; d: D form. 4‑Aminomethyl‑phenylacetyl = 4-aminomethyl-phenylacetyl unit, its amine closes the lactam, O=C(Cc1ccc(CN[*:1])cc1)[*:2]; 2‑Amino‑6‑carboxyhexanoyl = 2-aminoheptanedioic acid residue; Phe(4-Me) = Cc1ccc(C[C@H](N)C(=O)O)cc1; 2Nal = N[C@@H](Cc1ccc2ccccc2c1)C(=O)O; AEF = NCCOc1ccc(C[C@H](N)C(=O)O)cc1; 3Pal = N[C@@H](Cc1cccnc1)C(=O)O; αMeL = CC(C)C[C@](C)(N)C(=O)O; dDab = NCC[C@@H](N)C(=O)O; Dab = NCC[C@H](N)C(=O)O; Aib = CC(C)(N)C(=O)O
metric name: hIL-23 (pSTAT3) antagonist IC50 (nM)
# output: bare number, implied unit nM

Please give the measured hIL-23 (pSTAT3) antagonist IC50 for this binder: [dDab]TVWQE[AEF][2Nal][αMeL][2‑Amino‑6‑carboxyhexanoyl][Dab][3Pal]-NH2 (lactam 1-10, N-6) [Compound 7]
0.19

# hIL-23 (pSTAT3) antagonist IC50 lookup, item KIVWQE[Phe(4-Me)][2Nal][Aib]E[Dab][3Pal]-NH2 (lactam 1-10, N-6; SMILES CC[C@H](C)[C@@H]1NC(=O)[C@@H]2CCCCNC(=O)CC[C@@H](C(=O)N[C@@H](CCN)C(=O)N[C@@H](Cc3cccnc3)C(N)=O)NC(=O)C(C)(C)NC(=O)[C@H](Cc3ccc4ccccc4c3)NC(=O)[C@H](Cc3ccc(C)cc3)NC(=O)[C@H](CCC(=O)N2)NC(=O)[C@H](CCC(N)=O)NC(=O)[C@H](Cc2c[nH]c3ccccc23)NC(=O)[C@H](C(C)C)NC1=O) [Compound 17]
2.9

I have this binder here, [4‑Aminomethyl‑phenylacetyl]SEWQ[Dab][AEF][2Nal][αMeL]E[Dab]-NH2 (lactam (positions not given here); bridge 3-6; not fully specified (bridges)) [Ref 125] , and I need its recorded hIL-23 (pSTAT3) antagonist IC50.
21

Which hIL-23 (pSTAT3) antagonist IC50 is listed for [4‑Aminomethyl‑phenylacetyl]SCWQC[AEF][2Nal][αMeL]ES-NH2 (lactam (positions not given here); bridge 3-6; not fully specified (bridges)) [Ref 81] ?
21
